MEASURED_ENDPOINT: logP

[[record]]
smiles_entry = "N#Cc1ccc(OCC2CCN(CCF)CC2)cc1"
measured = 2.8

[[record]]
smiles_entry = "N#Cc1ccc(OCC2CCN(CCCF)CC2)cc1"
measured = 2.8


----------
Measured logP, listed per entry for reference.
MEASURED_ENDPOINT: logP

[[record]]
compound = "CC1(C)C=Cc2c(ccc3c2O[C@H]2c4ccc(O)cc4OC[C@@H]32)O1 (relative stereo)"
measured = 3.58

[[record]]
compound = "COc1ccc([C@@H]2COc3cc(O)ccc3C2)c(O)c1"
measured = 2.44

[[record]]
compound = "COc1ccc2c(c1)OC[C@]1(O)c3cc4c(cc3O[C@H]21)OCO4"
measured = 2.58

